# experimental.system: PDGFRB (Homo sapiens, UniProt P09619)
# Construct: Kinases are expressed as either kinase domains or full length constructs; made in house
# Sequence (P09619 33-1106, species assumed): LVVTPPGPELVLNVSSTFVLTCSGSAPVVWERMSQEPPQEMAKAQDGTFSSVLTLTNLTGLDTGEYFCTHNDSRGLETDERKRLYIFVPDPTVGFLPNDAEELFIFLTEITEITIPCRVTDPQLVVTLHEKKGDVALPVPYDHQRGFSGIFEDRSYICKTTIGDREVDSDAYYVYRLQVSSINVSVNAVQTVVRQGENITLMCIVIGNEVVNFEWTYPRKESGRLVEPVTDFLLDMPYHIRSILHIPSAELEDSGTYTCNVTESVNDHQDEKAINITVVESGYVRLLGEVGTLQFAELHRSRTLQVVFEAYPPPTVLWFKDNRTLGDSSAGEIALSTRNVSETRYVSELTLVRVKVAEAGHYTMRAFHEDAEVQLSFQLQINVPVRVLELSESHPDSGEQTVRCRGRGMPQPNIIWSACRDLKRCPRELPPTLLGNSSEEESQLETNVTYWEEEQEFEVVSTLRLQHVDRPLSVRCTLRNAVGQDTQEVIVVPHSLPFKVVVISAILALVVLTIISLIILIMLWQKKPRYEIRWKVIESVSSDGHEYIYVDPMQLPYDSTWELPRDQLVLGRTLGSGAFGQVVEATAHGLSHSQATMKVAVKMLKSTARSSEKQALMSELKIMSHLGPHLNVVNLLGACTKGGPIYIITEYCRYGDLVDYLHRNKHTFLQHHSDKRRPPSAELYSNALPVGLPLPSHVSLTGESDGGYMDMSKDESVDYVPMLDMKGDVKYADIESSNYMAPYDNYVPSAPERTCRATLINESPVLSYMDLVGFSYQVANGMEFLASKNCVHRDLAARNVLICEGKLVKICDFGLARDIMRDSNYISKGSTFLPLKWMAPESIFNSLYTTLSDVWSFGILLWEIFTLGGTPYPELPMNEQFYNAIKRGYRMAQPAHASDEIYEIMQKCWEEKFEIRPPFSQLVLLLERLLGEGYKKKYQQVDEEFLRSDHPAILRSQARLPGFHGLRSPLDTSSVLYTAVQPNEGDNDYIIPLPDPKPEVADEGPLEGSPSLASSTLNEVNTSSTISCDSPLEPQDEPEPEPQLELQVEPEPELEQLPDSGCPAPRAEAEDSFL
# method.summary: Kinase inhibition assay (33P transfer), PDGFRB
# Type: biochemical
# run.conditions: read-out: PDGFRB-1
pIC50: −log10 of the molar value.
attribute.measured: pIC50

# compound, pIC50
records = [
    ("O=C(O)Cc1cccc(Nc2ncnc(Nc3cc(-c4ccccc4)n[nH]3)n2)c1", "5.21 to 5.99"),
]

Exam item: Look up pIC50 with PDGFRB (Homo sapiens, UniProt P09619) for this compound: COc1cc(Nc2ncnc(Nc3ccc(Cl)cc3)n2)cc(OC)c1OC
Marked response: > 5.99

Exam item: Enter reported pIC50 observed with PDGFRB (Homo sapiens, UniProt P09619) for COc1cc(Nc2ncnc(Nc3ccc4[nH]ncc4c3)n2)cc(OC)c1OC
Marked response: 5.21 to 5.99

Exam item: Recorded pIC50 for COc1cc(Nc2ncnc(N(C)c3ccc(Cl)cc3)n2)cc(OC)c1OC with PDGFRB (Homo sapiens, UniProt P09619), please?
Marked response: > 6.00

Exam item: Any idea what pIC50 came out for COc1ccc(Sc2ncnc(Nc3cc(OC)c(OC)c(OC)c3)n2)cc1 on PDGFRB (Homo sapiens, UniProt P09619)?
Marked response: > 6.00

Exam item: What value of pIC50 on PDGFRB (Homo sapiens, UniProt P09619) does COc1ccc(Nc2ccc(Nc3ncnc(Nc4cc(OC)c(OC)c(OC)c4)n3)cc2)cc1 have?
Marked response: 5.30 to 6.07

---

# experimental.system: Itk (Homo sapiens, UniProt Q08881)
# Construct: Kinases are expressed as either kinase domains or full length constructs; made in house
# Sequence (Q08881 1-620): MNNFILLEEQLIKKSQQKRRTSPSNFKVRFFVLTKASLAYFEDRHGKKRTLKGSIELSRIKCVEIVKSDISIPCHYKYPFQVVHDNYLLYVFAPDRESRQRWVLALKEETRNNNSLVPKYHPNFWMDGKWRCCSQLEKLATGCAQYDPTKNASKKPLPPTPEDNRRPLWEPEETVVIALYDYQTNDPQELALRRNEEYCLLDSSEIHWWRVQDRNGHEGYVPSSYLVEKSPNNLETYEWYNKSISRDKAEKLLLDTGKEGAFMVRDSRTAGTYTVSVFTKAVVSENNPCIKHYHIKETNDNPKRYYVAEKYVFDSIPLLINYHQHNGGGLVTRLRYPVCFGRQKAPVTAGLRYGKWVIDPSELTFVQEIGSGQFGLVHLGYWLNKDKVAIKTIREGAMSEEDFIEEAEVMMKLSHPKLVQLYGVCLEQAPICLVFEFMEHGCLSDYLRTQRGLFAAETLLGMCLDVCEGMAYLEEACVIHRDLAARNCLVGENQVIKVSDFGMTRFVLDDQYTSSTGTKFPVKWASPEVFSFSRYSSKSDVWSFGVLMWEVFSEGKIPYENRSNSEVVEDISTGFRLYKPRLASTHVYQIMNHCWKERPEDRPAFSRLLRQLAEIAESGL
# method.summary: Kinase inhibition assay (33P transfer), Itk
# Format: biochemical
# run.conditions: read-out: Itk-1
pIC50: −log10 of the molar value.
attribute.measured: pIC50

Completed entries (count: 4):
# molecule, result
rows = [
    ("CCOC(=O)C(Cc1cccc(Nc2ncnc(Nc3cc(-c4ccco4)n[nH]3)n2)c1)(NC(C)=O)C(=O)OCC", "5.09 to 5.20"),
    ("CCN(CC)CCOc1cc(Nc2ncnc(Nc3cc(OC)c(OC)c(OC)c3)n2)ccc1OC", "< 5.04"),
    ("CN(c1cccc(Cl)c1)c1ncnc(NCCOCCO)n1", "< 4.86"),
    ("COc1cc(Nc2ncnc(-n3c(NCc4ccc(N(C)C)cc4)nc4ccccc43)n2)cc(OC)c1OC", "< 5.07"),
]

Exam item: Form field - read-out: pIC50; system: Itk (Homo sapiens, UniProt Q08881); submitted item: COc1cc(Nc2ncnc(NN3CCCC3)n2)cc(OC)c1OC
Marked response: < 4.89

---

# experimental.system: Itk (Homo sapiens)
# Construct: Kinases are expressed as either kinase domains or full length constructs; made in house
# method.summary: Kinase inhibition assay (33P transfer), Itk
# Assay type: biochemical
# run.conditions: read-out: Itk-1
pIC50: −log10 of the molar value.
attribute.measured: pIC50

Answered cases to consult:
# compound.structure, result
records = [
    ("COc1ccc(Nc2ncnc(-n3c(=O)[nH]c4ccccc43)n2)cc1OC", "< 4.91"),
    ("COc1cc(Nc2ncnc(-c3cccnc3NCc3ccccc3F)n2)cc(OC)c1OC", "< 5.01"),
    ("CN(c1cccc(Cl)c1)c1ncnc(Nc2ccc(S(C)(=O)=O)cc2)n1", "< 4.94"),
    ("CCN(c1ccc(C)cc1)c1ncnc(Nc2cc(OC)c(OC)c(OC)c2)n1", "4.94 to 5.05"),
    ("COc1cc(Nc2ncnc(-n3c(N[C@@H](C)c4ccccc4)nc4ccccc43)n2)cc(OC)c1OC", "< 5.04"),
]

Exam item: Look up pIC50 for this molecule: COc1ccc(Nc2ncnc(NCCC#N)n2)cc1OC
Marked response: < 4.82

Exam item: Would you mind telling me what pIC50 value was observed for CN1CCN(Cc2cccc(Nc3ncnc(Nc4ccc5c(cnn5Cc5ccccc5)c4)n3)c2)CC1 ?
Marked response: < 5.05

Exam item: For the molecule shown here, COc1cc(Nc2ncnc(N(C)c3ccc4c(cnn4Cc4ccccc4)c3)n2)cc(OC)c1OC , give the reported pIC50.
Marked response: < 5.04

---

# experimental.system: EGFR (Homo sapiens, UniProt P00533)
# Construct: Kinases are expressed as either kinase domains or full length constructs; made in house
# Sequence (P00533 25-1210, species assumed): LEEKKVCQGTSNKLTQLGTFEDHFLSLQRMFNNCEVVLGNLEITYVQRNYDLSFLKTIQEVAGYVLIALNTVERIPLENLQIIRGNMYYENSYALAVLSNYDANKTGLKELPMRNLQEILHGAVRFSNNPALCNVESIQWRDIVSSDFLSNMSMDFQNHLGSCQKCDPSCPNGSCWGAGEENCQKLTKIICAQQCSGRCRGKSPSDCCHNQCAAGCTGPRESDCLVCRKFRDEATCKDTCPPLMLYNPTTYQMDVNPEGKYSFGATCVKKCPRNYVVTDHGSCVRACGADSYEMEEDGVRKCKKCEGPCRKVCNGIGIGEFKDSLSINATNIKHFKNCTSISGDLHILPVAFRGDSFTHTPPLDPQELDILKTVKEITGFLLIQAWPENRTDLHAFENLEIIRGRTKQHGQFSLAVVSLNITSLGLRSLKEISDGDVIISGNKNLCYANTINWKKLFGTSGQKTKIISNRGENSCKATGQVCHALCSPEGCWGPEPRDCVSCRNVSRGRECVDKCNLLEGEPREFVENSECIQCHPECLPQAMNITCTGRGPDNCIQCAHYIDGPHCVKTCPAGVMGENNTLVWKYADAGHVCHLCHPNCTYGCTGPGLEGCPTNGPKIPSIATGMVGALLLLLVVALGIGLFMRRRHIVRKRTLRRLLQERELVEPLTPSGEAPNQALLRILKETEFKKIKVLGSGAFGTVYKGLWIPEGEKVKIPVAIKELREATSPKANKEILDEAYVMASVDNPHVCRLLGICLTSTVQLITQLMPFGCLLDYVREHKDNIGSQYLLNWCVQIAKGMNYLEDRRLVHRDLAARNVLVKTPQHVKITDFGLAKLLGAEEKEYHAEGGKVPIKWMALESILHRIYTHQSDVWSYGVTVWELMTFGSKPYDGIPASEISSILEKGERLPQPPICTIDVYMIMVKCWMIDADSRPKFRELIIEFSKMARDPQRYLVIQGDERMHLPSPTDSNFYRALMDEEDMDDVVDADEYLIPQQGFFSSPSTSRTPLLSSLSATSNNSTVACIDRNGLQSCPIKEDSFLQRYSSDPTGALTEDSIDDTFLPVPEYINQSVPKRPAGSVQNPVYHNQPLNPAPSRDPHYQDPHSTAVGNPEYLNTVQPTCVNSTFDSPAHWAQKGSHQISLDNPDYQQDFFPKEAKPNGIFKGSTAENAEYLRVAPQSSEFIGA
# method.summary: Kinase inhibition assay (33P transfer), EGFR
# Format: biochemical
# run.conditions: Table 2, kinase inhibition class; read-out: EGFR-1
attribute.measured: IC50

Example results:
# compound, result
data = [
    ("CCC(O)CNc1ncnc(Nc2ccc(OC)c(OC)c2)n1 (stereo not drawn) [Compound 788]", "> 14.1 µM"),
    ("COc1cc(Nc2ncnc(N(CC(=O)OC(C)(C)C)c3ccc4c(c3)OCO4)n2)cc(OC)c1OC [Compound 309]", "4.69 to 6.84 µM"),
    ("COc1cc(Nc2ncnc(-n3c(Nc4ccc(F)cc4)nc4ccccc43)n2)cc(OC)c1OC [Compound 387]", "> 9.23 µM"),
]

Now consider a different compound.
Exam item: # get_value(readout='IC50', item= COc1cc(Nc2ncnc(-c3ccnc(Cl)c3)n2)cc(OC)c1OC [Compound 331] )
Marked response: > 12 µM

---

# experimental.system: Lck (Homo sapiens)
# Construct: Kinases are expressed as either kinase domains or full length constructs; made in house
# Sequence (P06239 whole entry, species assumed, the tested form may be a part): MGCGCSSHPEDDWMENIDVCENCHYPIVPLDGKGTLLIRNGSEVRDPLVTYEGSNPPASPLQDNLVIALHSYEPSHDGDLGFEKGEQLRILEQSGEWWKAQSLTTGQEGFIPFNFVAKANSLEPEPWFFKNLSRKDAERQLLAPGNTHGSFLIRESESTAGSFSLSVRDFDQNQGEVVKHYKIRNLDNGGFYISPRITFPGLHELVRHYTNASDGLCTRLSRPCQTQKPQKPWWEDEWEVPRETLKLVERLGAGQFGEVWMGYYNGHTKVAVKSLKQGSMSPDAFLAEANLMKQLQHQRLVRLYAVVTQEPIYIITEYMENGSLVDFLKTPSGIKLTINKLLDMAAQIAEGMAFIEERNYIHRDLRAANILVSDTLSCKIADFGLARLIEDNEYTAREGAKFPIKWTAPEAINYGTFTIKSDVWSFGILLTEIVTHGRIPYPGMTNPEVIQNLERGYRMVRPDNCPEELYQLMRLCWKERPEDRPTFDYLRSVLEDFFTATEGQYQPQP
# method.summary: Kinase inhibition assay (33P transfer), Lck
# Type: biochemical
# run.conditions: read-out: Lck-1
attribute.measured: IC50

These recorded examples may help you get a feel for the data.
# molecule, IC50
records = [
    ("COc1cc(Nc2ncnc(-c3ccc(NCCCN)nc3)n2)cc(OC)c1OC", "> 10.9 µM"),
    ("CC(=O)N1CCc2cc(Nc3ncnc(N4CCCc5cc(C)ccc54)n3)ccc21", "> 11.2 µM"),
    ("COc1ccc(Nc2ncnc(NCCNC(C)=O)n2)cc1OC", "> 13.5 µM"),
]

Exam item: Hi! What's the reported IC50 for COc1cc(Nc2ncnc(N3c4ccccc4CC3C)n2)cc(OC)c1OC (stereo not shown) on Lck (Homo sapiens)?
Marked response: < 1.02 µM

Exam item: Hello, I am looking for reported IC50 with Lck (Homo sapiens) for Nc1nc2ccccc2n1-c1ncnc(Nc2cccnc2)n1 . Could you help?
Marked response: > 14.8 µM

Exam item: // map CN(c1ccc(F)c(Cl)c1)c1ncnc(Nc2cccc(Br)c2)n1 to recorded IC50 (system: Lck (Homo sapiens))
Marked response: > 11 µM

Exam item: What value of IC50 on Lck (Homo sapiens) does COCCCNc1ncnc(N2CCCc3cc(C)ccc32)n1 have?
Marked response: > 14.4 µM

Exam item: Identify the measured IC50 of COc1cc(Nc2ncnc(N(C)c3cccc(Cl)c3)n2)cc(OC)c1OC for Lck (Homo sapiens).
Marked response: < 0.995 µM

Exam item: Param readout = IC50; param system = Lck (Homo sapiens); param query = CC(=O)NS(=O)(=O)c1ccc(Nc2ncnc(N(C)c3cccc(Cl)c3)n2)cc1 ; response: value
Marked response: 5.54 to 8.09 µM

Exam item: # query: IC50 | item O=c1[nH]c2ccccc2n1-c1ncnc(Nc2cc(C(F)(F)F)cc(C(F)(F)F)c2)n1 | system: Lck (Homo sapiens)
Marked response: 7.95 to 10.2 µM

Exam item: What is its IC50 for Lck (Homo sapiens)? Entry: CC1CCc2ccccc2N1c1ncnc(N2c3ccccc3CCC2C)n1 (stereo not shown)
Marked response: > 12.1 µM

Exam item: I'm curious: which IC50 was measured for CCN(CC)CCOc1ccc(Nc2ncnc(-n3c(N)nc4ccccc43)n2)cc1OC tested on Lck (Homo sapiens)?
Marked response: < 0.892 µM

Exam item: Provide value of IC50 for this record tested with Lck (Homo sapiens): COc1cc(Nc2ncnc(-n3c(NCCc4ccccc4)nc4ccccc43)n2)cc(OC)c1OC
Marked response: 0.804 to 4.82 µM

The reported measurements were obtained from patent US7074789B2.
